Sourced from patent US11208404B2

Target: ALCAT1 (Homo sapiens (Human))
Sequence (Q6UWP7 whole entry): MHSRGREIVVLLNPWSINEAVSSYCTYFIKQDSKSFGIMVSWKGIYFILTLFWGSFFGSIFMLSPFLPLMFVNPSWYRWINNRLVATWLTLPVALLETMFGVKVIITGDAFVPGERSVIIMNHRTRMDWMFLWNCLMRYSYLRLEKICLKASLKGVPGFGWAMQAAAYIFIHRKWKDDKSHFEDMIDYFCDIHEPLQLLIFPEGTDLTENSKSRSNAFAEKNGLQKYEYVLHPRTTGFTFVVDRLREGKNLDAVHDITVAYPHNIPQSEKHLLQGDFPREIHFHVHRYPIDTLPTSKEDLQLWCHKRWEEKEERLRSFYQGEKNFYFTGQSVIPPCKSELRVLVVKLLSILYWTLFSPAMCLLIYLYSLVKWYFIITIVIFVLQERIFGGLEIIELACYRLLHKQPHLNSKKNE
Test: In vitro acyltransferase assay for ALCAT1 inhibitors
Assay type: biochemical
Conditions: ALCAT1 enzyme activity; triplicates, GraphPad; read-out: IC50
Experimental: The human ALCAT1 protein were expressed in Spodoptera frugiperda (Sf9) insect cells by using a Bac-to-Bac baculovirus expression system (Invitrogen) according to the manufacturer's instruction. […] The membrane fraction was resuspended in enzymatic buffer that contain 10% glycerol, quantified for protein concentration, aliquoted, and stored at −80° C. […] Compound inhibitors for ALCAT1 enzyme were analyzed by an in vitro enzymatic assay as detailed above. […]
pIC50: −log10 of the molar value.
property.label: pIC50

{"columns": ["compound.structure", "system.under.test", "property.label", "test.value"],
 "data": [
  ["CCCc1ccc(OC)c(C(=O)Nc2cc(-c3nnc(-c4ccco4)o3)ccc2F)c1", "ALCAT1 (Homo sapiens (Human))", "pIC50", 7.62],
  ["O=C(Nc1cccc(-c2nnc(-c3ccco3)o2)c1)c1cc(Cl)ccc1OCC(F)F", "ALCAT1 (Homo sapiens (Human))", "pIC50", 6.92],
  ["O=C(Nc1cccc(-c2nnc(-c3ccco3)o2)c1)c1cc([N+](=O)[O-])ccc1Cl", "ALCAT1 (Homo sapiens (Human))", "pIC50", 6.12]
]}

a: CCCOc1ccc(C)cc1C(=O)Nc1cccc(-c2nnc(-c3ccco3)o2)c1
b: COc1ccc(Br)cc1C(=O)Nc1cccc(-c2nnc(-c3ccco3)o2)c1
c: COc1c(Br)cccc1C(=O)Nc1cccc(-c2nnc(-c3ccco3)o2)c1
Which order do these items take when sorted by rising pIC50? List them. Answer format: the labels, ordered as requested. a, c, b

a: CCOc1ccc(C)cc1C(=O)Nc1cc(-c2nnc(-c3ccco3)o2)ccc1F
b: CCCOc1ccccc1C(=O)Nc1cccc(-c2nnc(-c3ccco3)o2)c1
Compare pIC50: is it lower for a or for b ? Which one? Tell me its label. b
(b: 6.82, a: 7.51)
